# Tested on: retinal degeneration mouse model
# PROCEDURE SUMMARY: Electroretinogram (ERG) in blue LED-induced retinal degeneration mouse model
# Assay type: in vivo, BALB/c mice
# EXPERIMENTAL CONDITIONS: single intravitreal injection 1 hour after LED exposure; compound 24 nM, Eylea 25 mg/kg
REPORTED ENDPOINT: Wavelength enhanced multiple compared to a normal saline-treated group, a-wave

Study these solved cases before continuing.
CNC(=O)C1(Cc2ccc(F)cc2)CCN(Cc2oc(-c3ccccc3-c3cccc4c3CN(C)C4=O)cc2C)CC1 [Compound 39]	1.21
CNC(=O)C1(C)CN(Cc2ccc(-c3ccccc3-c3cccc4c3CN(C)C4=O)o2)CCC1O (centres unmarked) [Compound 25]	1.52
CN1Cc2c(cccc2-c2ccccc2-c2ccc(CN3CCOCC3)o2)C1=O [Compound 13]	1.29

[a] CN1Cc2c(cccc2-c2ccccc2-c2ccc(CNCc3cnn(C)c3)o2)C1=O [Compound 18]
[b] CCC1(C(=O)NC)CCCN(Cc2oc(-c3ccccc3-c3cccc4c3CN(C)C4=O)cc2C)C1 (centres unmarked) [Compound 40]
Select one. Lower Wavelength enhanced multiple compared to a normal saline-treated group, a-wave: a or b When you have decided, please share the label of that item.
b
(b: 1.16, a: 2.05)

Values were extracted from patent US20250289808A1.
